Test system: SK-MEL-28
Run Description: Growth inhibition of human SK-MEL-28 cells after 48 hrs by sulforhodamine B assay
Assay type: functional
Condition Label: SK-MEL-28, 48 h, read-out: LC50 (the source's name)
The reader will find reported CC50 values listed item by item below.

Known CC50 results, listed for orientation:
COc1cc(C)cc(-c2nn(CC#N)cc2-c2ccnc(-c3ccc(N(C)C)cc3)c2)c1 :: > 100 µM
COc1cc(C)cc(-c2c(-c3ccnc(-c4ccc(C(C)=O)cc4)c3)cnn2CC#N)c1 :: > 100 µM
COc1cc(C)cc(-c2nn(CC#N)cc2-c2ccc(-c3cccc(C(C)=O)c3)nc2)c1 :: > 100 µM
Cc1cc(O)cc(-c2nn(CC#N)cc2-c2ccnc(-c3ccc(N(C)C)cc3)c2)c1 :: > 100 µM

Task: Endpoint output: CC50 of `Cc1cc(O)cc(-c2nn(CC#N)cc2-c2ccnc(-c3ccc(Oc4ccccc4)cc3)c2)c1` . Value?
Result: 41.4 µM
